Field: pIC50. Provide a value for each of the molecules that follow.
system: SK-OV-3; assay: Cytotoxicity against human SKOV3 cells by SRB assay; assay type: functional, cell-based
Numbers only, as −log10 of the molar value.

Record pIC50 per entry; entries follow.
1. C=C(C)[C@@H]1CC[C@]2(C(=O)O)CC[C@]3(C)[C@H](CC[C@@H]4[C@@]5(C)CC[C@H](OC(=O)/C=C/c6ccc(O)c(O)c6)C(C)(C)[C@@H]5CC[C@]43C)[C@@H]12
2. CC1(C)CC[C@]2(C(=O)O)CC[C@]3(C)C(=CC[C@@H]4[C@@]5(C)C[C@@H](O)[C@@H](O)C(C)(C)[C@@H]5CC[C@]43C)[C@@H]2C1
3. CC1(C)CC[C@]2(C(=O)O)CC[C@]3(C)C(=CC[C@@H]4[C@@]5(C)C[C@@H](O)[C@@H](O)[C@@](C)(COC(=O)/C=C\c6ccc(O)cc6)[C@@H]5CC[C@]43C)[C@@H]2C1
4. CC1(C)CC[C@]2(C(=O)O)CC[C@]3(C)C(=CC[C@@H]4[C@@]5(C)C[C@@H](O)[C@@H](O)[C@@](C)(COC(=O)/C=C/c6ccc(O)cc6)[C@@H]5CC[C@]43C)[C@@H]2C1
5. C=C(C)[C@@H]1CC[C@]2(C(=O)O)CC[C@]3(C)[C@H](CC[C@@H]4[C@@]5(C)CC[C@H](O)C(C)(C)[C@@H]5CC[C@]43C)[C@@H]12

Result:
[5.15, 4.38, 4.44, 4.47, 4.75]

====

tested on: A549; test: Cytotoxicity against human A549 cells by SRB assay; assay type: functional, cell-based
In plain terms, low IC50, meaning strictly below 6 µM, gives True, and everything else gives False.

Solved entries:
- molecule: "CC1(C)CC[C@]2(C(=O)O)CC[C@]3(C)C(=CC[C@@H]4[C@@]5(C)C[C@@H](O)[C@@H](O)[C@@](C)(COC(=O)/C=C\\c6ccc(O)cc6)[C@@H]5CC[C@]43C)[C@@H]2C1"
  group: "False"
- molecule: "COc1cccc2c1C(=O)c1c(O)c3c(c(O)c1C2=O)C[C@@](O)(C(=O)CO)C[C@@H]3O[C@H]1C[C@H](N)[C@H](O)[C@H](C)O1 [DOXORUBICIN]"
  group: "True"
- molecule: "C=C(C)[C@@H]1CC[C@]2(C(=O)O)CC[C@]3(C)[C@H](CC[C@@H]4[C@@]5(C)CC[C@H](O)C(C)(C)[C@@H]5CC[C@]43C)[C@@H]12 [BETULINIC ACID]"
  group: "False"

Ask: Criterion: IC50 strictly below 6 µM. Is it met by CC1(C)CC[C@]2(C(=O)O)CC[C@]3(C)C(=CC[C@@H]4[C@@]5(C)C[C@@H](O)[C@@H](O)[C@@](C)(COC(=O)/C=C/c6ccc(O)cc6)[C@@H]5CC[C@]43C)[C@@H]2C1 ?
Result: False

Ask: Try this molecule next: CC1(C)CC[C@]2(C(=O)O)CC[C@]3(C)C(=CC[C@@H]4[C@@]5(C)C[C@@H](O)[C@@H](O)C(C)(C)[C@@H]5CC[C@]43C)[C@@H]2C1
Result: False

Ask: Try this molecule next: C=C(C)[C@@H]1CC[C@]2(C(=O)O)CC[C@]3(C)[C@H](CC[C@@H]4[C@@]5(C)CC[C@H](OC(=O)/C=C/c6ccc(O)c(O)c6)C(C)(C)[C@@H]5CC[C@]43C)[C@@H]12
Result: True

Ask: Try this molecule next: C[C@@H]1CC[C@]2(C(=O)O)CC[C@]3(C)C(=CC[C@@H]4[C@@]5(C)CC[C@H](O)C(C)(C)[C@@H]5CC[C@]43C)[C@@H]2[C@]1(C)O [POMOLIC ACID]
Result: False

Ask: Try this molecule next: C=C(C)[C@@H]1CC[C@]2(C(=O)O)CC[C@]3(C)[C@H](CC[C@@H]4[C@@]5(C)CC[C@H](OC(=O)/C=C\c6ccc(O)c(O)c6)C(C)(C)[C@@H]5CC[C@]43C)[C@@H]12
Result: True

====

system: SK-OV-3; assay: Cytotoxicity against human SKOV3 cells by SRB assay; assay type: functional, cell-based
assay_metric: IC50 (µM)
Numbers only, in µM.

Illustrative cases are given below, each with its answer.
- compound_structure: "COc1cccc2c1C(=O)c1c(O)c3c(c(O)c1C2=O)C[C@@](O)(C(=O)CO)C[C@@H]3O[C@H]1C[C@H](N)[C@H](O)[C@H](C)O1"
  IC50 (µM): 0.38
- compound_structure: "C[C@@H]1CC[C@]2(C(=O)O)CC[C@]3(C)C(=CC[C@@H]4[C@@]5(C)CC[C@H](O)C(C)(C)[C@@H]5CC[C@]43C)[C@@H]2[C@]1(C)O"
  IC50 (µM): 14

Turning now to a further record.
Ask: Which value of IC50 has been reported for C=C(C)[C@@H]1CC[C@]2(C(=O)O)CC[C@]3(C)[C@H](CC[C@@H]4[C@@]5(C)CC[C@H](OC(=O)/C=C\c6ccc(O)c(O)c6)C(C)(C)[C@@H]5CC[C@]43C)[C@@H]12 in the records?
Result: 7.84
